# assay_overview: self-splicing fitness, log relative to wild type (ln ratio); higher = more splicing; Tetrahymena group I intron in knt gene, E. coli kanamycin selection, DiMSum; sequences stand for … in CUCUCU…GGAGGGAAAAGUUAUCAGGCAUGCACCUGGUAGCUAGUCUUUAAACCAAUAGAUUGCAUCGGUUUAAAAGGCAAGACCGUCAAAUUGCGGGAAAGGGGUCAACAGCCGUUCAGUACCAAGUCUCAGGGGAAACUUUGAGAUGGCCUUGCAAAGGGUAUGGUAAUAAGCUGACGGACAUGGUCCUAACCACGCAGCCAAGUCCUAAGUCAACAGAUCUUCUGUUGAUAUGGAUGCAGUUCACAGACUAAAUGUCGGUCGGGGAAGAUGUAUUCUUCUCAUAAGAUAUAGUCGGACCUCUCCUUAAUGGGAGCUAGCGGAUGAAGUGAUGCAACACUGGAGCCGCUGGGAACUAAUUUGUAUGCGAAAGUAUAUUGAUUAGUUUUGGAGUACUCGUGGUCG;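 further: selection with 25 µg/mL kanamycin versus none on LB agar overnight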
# run_conditions: 30 °C
Collected self-splicing fitness (ln) values appear next to each entry.
Answer with a bare number; do not write a unit.

Below are worked cases with known answers.
[[record]]
primary_sequence = "UAUAAGCAAUAUUACGCUUC"
recorded_measurement = -3.58

[[record]]
primary_sequence = "CAACAGCAAUAUUACGGACG"
recorded_measurement = -0.191

[[record]]
primary_sequence = "GUCCAGCAAUAUUACGCGUG"
recorded_measurement = -1.04

[[record]]
primary_sequence = "AUUCAGCAAUAUUACGUUGA"
recorded_measurement = -2.64

[[record]]
primary_sequence = "AUCCAGCAAUAUUACGUCUU"
recorded_measurement = -0.371


Let's switch to this sequence now.
Request: Requested field: self-splicing fitness (ln). Item: CGCCAGCAAUAUUACGGCCC
Response: -2.2

----------
# assay_overview: self-splicing fitness, log relative to wild type (ln ratio); higher = more splicing; Tetrahymena group I intron in knt gene, E. coli kanamycin selection, DiMSum; sequences stand for … in CUCUCU…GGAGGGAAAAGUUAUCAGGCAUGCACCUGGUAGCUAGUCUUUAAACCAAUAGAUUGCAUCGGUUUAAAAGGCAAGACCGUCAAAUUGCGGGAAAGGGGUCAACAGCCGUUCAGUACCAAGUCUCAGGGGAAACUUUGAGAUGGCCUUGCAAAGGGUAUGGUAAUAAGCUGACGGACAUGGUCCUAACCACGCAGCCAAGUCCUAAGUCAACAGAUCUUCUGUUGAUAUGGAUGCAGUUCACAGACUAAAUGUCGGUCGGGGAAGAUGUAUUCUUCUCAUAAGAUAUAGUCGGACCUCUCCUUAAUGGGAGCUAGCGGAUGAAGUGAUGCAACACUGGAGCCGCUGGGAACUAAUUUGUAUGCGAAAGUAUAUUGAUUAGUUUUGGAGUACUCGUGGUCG
# run_conditions: 37 °C
test_readout: self-splicing fitness (ln)

Below are worked cases with known answers.
[[record]]
primary_sequence = "CAAUAGCAAUAUUACGAGCU"
recorded_measurement = -3.5

[[record]]
primary_sequence = "GAAAAGCAAUAUUACGCAAC"
recorded_measurement = -0.437

[[record]]
primary_sequence = "UGCUAGCAAUAUUACGCAUG"
recorded_measurement = -0.445

[[record]]
primary_sequence = "GUGCAGCAAUAUUACGGCUG"
recorded_measurement = -2.36

[[record]]
primary_sequence = "CCUGAGCAAUAUUACGUUGC"
recorded_measurement = -2.27

[[record]]
primary_sequence = "ACUGAGCAAUAUUACGCGUU"
recorded_measurement = -1.51


Let's switch to this sequence now.
Request: Requested field: self-splicing fitness (ln). Item: CAACAGCAAUAUUACGCCGG
Response: 0.147
